system: L1210; assay: Antitumor activity against mouse L1210 cells allografted in C3H/DBA2F1 hybrid mouse assessed as maximum increase of host life span administered as ip for 5 days relative to control; format: functional
The following molecules are listed with their measured log(ILSmax) values.
Hey, just send me the number, nothing else.

query: May I ask what log(ILSmax) has been recorded for Cc1cccc2c(Nc3ccc(CCC(=O)O)cc3)c3ccccc3nc12 ?
result: 2.09

query: May I ask what log(ILSmax) has been recorded for CCCS(=O)(=O)Nc1ccc(Nc2c3ccccc3nc3cc(NC(C)=O)ccc23)cc1 ?
result: 2.06

query: May I ask what log(ILSmax) has been recorded for CS(=O)(=O)O.NC(=O)CCCCc1ccc(Nc2c3ccccc3nc3ccccc23)cc1 ?
result: 1.91

query: May I ask what log(ILSmax) has been recorded for CCC(=O)Nc1ccc2c(Nc3ccc(NS(C)(=O)=O)cc3)c3ccccc3nc2c1 ?
result: 2.08

Next up:
query: May I ask what log(ILSmax) has been recorded for Cl.O=C(O)CCCCCCCCc1ccc(Nc2c3ccccc3nc3ccccc23)cc1 ?
result: 1.86

Numbers sourced from ChEMBL document CHEMBL3244004.
